Cited source for all entries: PubChem BioAssay (NCI)

Each entry below carries its recorded TGI.
Test system: DU-145 prostate
Run Description: NCI tumour cell line growth inhibition, 48 h
Measured Property: TGI

>>> result("COC(=O)[C@]12CC[C@@H](C)[C@H](C)[C@@H]1C1=CC[C@@H]3[C@@]4(C)C[C@@H](OC(=O)/C=C/c5ccccc5)[C@H](O)[C@@](C)(CO)[C@@H]4[C@H](O)C[C@@]3(C)[C@]1(C)CC2")
"5.83 µM"
>>> result("Cc1cc2nc(C=C(C(F)(F)F)C(F)(F)F)sc2cc1C")
"10.2 µM"
>>> result("COc1ccc2c(C)c(Oc3c(Cl)c(Cl)c(O)c(C#N)c3C#N)oc2c1")
"> 100 µM"
>>> result("CC(C)[C@@](O)(c1ccc2cc(OC(F)F)c(OC(F)F)cc2c1)c1cn[nH]n1")
"39.2 µM"
>>> result("O=C(O)C1(Cc2ccccc2)Cc2cc3c(cc2C1)CCC3")
"> 100 µM"
>>> result("CCC1(CC)C(=O)N(C(=O)c2ccccc2)N(C(=O)c2ccc(Cl)cc2)C1=O")
"> 75 µM"
>>> result("O=C(NCCC1CN(C(=O)OCc2ccccc2)c2ccccc21)OCc1ccccc1 (stereo not drawn)")
"> 100 µM"
>>> result("COc1ccc2[nH]c3c(c2c1)CC(=O)N1CCCC(CC3O)C1 (stereo not drawn)")
"> 100 µM"
>>> result("CCOC(=O)CC[C@H](NC(=O)N[C@H](C)c1ccccc1)C(=O)OCC")
"> 100 µM"
>>> result("CC(C)(C)C1CCC2c3c([nH]c4ccccc34)C3C(=O)N(c4ccccc4[N+](=O)[O-])C(=O)C3C2C1 (stereo not drawn)")
"22.4 µM"
>>> result("CCCCCCCCCCCCCC1=C(O)C(=O)C(CC2=C(O)C(=O)C(CCCCCCCCCCCCC)=C(O)C2=O)=C(O)C1=O")
"> 100 µM"
>>> result("CC(C)(c1ccccc1)c1cc(O)c(C(C)(C)c2ccccc2)cc1O")
"16.2 µM"
>>> result("CC(C)(C)c1ccc2c(c1)C#Cc1cc(C(C)(C)C)ccc1OCCCO2")
"> 100 µM"
>>> result("CC1(CO)COS(=O)OC1 (stereo not drawn)")
"> 100 µM"
>>> result("COc1ccc2c(c1)-c1c(c3cc(OC)ccc3n1CCCN(C)C)CC2")
"33.4 µM"
>>> result("CC(=O)O[C@H]1CC[C@H]2[C@@H]3CCC4=CC(=O)C=C[C@]4(O)[C@H]3CC[C@]12C")
"> 100 µM"
>>> result("CC(=O)NCCCCN(CCCNC(C)=O)C(=O)CNS(=O)(=O)c1cccc2c(N(C)C)cccc12")
"> 100 µM"
>>> result("N#CC(C#N)=C/C=C/c1c(Cl)cccc1Cl")
"3.2 µM"

----------
Test system: UACC-257 melanoma
Run Description: NCI tumour cell line growth inhibition, 48 h
Measured Property: TGI

>>> result("CCOC(=O)C(CCC(N)=O)(CCC(=O)OC)C(=O)OCC")
"> 100 µM"
>>> result("Cc1cc(=O)oc2c(CNC(CO)C(=O)O)c(O)ccc12 (centres undefined)")
"> 100 µM"
>>> result("Cc1ccc(C=C2C(Cl)=C(Cl)C(Cl)=C2Cl)cc1")
"4.32 µM"
>>> result("N#CC1=C(N)NC(=S)NC12Nc1ccccc1S2 (centres undefined)")
"> 100 µM"
